test system: HepG2; assay: alamarBlue cell viability (survival rate), HepG2; format: cell-based; conditions: Homo sapiens; HepG2 (liver cancer), compound 10 µM, 48 hours; read-out: Cancer cell line survival rate (%)
viability at 10 µM vs 2%: less than gives 1.0; not less than gives 0.0.

Problem: Just wondering, is viability at 10 µM of COc1cc([C@H]2Oc3c(OC)cc(/C=C/Cc4cc(O)c(O)cc4CCCCCCCCC(=O)c4c(O)cccc4O)cc3[C@@H]2C)ccc1O [Compound 17, Myricone Q] below 2%?
Solution: 0.0

Problem: Just wondering, is viability at 10 µM of C=CCc1cc(OC)c(O[C@@H](C)[C@H](Oc2cc(CCCCCCCCC(=O)c3c(O)cccc3O)ccc2O)c2ccc(O)c(OC)c2)c(OC)c1 [Compound 10, Myricone K] below 2%?
Solution: 0.0

Problem: Just wondering, is viability at 10 µM of C=CCc1cc(OC)c(O[C@H](C)[C@H](c2ccc(O)c(OC)c2)c2cc(O)c(O)cc2CCCCCCCCC(=O)c2c(O)cccc2O)c(OC)c1 [Compound 6, Myricone F] below 2%?
Solution: 1.0

Problem: Just wondering, is viability at 10 µM of COc1cc(C(c2ccc(O)c(C(=O)CCCCCCCCc3ccc(O)c(O)c3)c2O)C(C)C(C)Cc2ccc3c(c2)OCO3)ccc1O (stereo not drawn) [Compound 14, Myricone O] below 2%?
Solution: 0.0

Problem: Just wondering, is viability at 10 µM of C=CCc1ccc(O[C@H](C)[C@H](c2ccc(O)c(OC)c2)c2ccc(O)c(C(=O)CCCCCCCCc3ccc(O)c(O)c3)c2O)c(OC)c1 [Compound 5, Myricone E] below 2%?
Solution: 0.0

Problem: Just wondering, is viability at 10 µM of COc1ccc(/C=C/Cc2ccc(O)c(C(=O)CCCCCCCCc3ccc(O)c(O)c3)c2O)cc1OC [Compound 21, Myricone Z] below 2%?
Solution: 0.0

Numbers sourced from patent EP4790046A1.
